Below: a set of entries, each annotated with reported pIC50.
- TESTED_SYSTEM: T1, β-catenin (UniProt P35222 1-781, limits assumed)
- T1 construct: also called beta-catenin
- T1 sequence (looked up): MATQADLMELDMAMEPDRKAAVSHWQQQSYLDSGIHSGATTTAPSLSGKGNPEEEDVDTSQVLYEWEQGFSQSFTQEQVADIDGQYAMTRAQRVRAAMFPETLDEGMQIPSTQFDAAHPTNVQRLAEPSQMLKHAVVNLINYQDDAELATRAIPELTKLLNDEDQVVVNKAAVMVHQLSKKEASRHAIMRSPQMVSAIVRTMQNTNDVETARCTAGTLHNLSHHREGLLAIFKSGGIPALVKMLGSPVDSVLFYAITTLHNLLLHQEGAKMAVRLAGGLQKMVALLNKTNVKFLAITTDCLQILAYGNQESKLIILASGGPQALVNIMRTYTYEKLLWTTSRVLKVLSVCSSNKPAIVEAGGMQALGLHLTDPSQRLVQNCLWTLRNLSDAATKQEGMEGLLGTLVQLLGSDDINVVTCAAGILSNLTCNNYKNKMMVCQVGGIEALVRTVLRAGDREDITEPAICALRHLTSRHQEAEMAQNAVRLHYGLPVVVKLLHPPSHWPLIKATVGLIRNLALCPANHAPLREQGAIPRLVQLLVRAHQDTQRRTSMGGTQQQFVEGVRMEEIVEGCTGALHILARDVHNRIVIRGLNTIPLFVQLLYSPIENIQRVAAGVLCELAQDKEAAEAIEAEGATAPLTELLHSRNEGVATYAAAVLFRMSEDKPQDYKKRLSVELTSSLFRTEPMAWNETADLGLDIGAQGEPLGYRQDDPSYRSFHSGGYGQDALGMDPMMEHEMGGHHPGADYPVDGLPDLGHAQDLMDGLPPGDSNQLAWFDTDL
- ASSAY_OVERVIEW: ALPHA Screen (BCL9/β-catenin);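 also: bead proximity readout with the polypeptide linked to donor beads and β-catenin fixed on acceptor beads, their binding bringing the beads close enough to emit signal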
pIC50: −log10 of the molar value. Bridges are numbered along the chain shown (N, C = ends). Where no end group is shown, it is not given here. [ ]: non-standard residue; d: D form. The star is where a group is joined. 2Nal = N[C@@H](Cc1ccc2ccccc2c1)C(=O)O; hArg = N=C(N)NCCCC[C@H](N)C(=O)O; NMeQ = CN[C@@H](CCC(N)=O)C(=O)O; dNMeQ = CN[C@H](CCC(N)=O)C(=O)O; Cha = N[C@@H](CC1CCCCC1)C(=O)O; Cba = N[C@@H](CC1CCC1)C(=O)O; S5 = C=CCCC[C@](C)(N)C(=O)O; Nle = CCCC[C@H](N)C(=O)O; Propionyl = CCC(=O)*

# BINDER, pIC50
records = [
    ("L[dNMeQ]TLR[S5]IQR[S5][Cba][2Nal] (staple 6-10; not fully specified (N-terminus, C-terminus); printed as L(N-methylQ)TLRXIQRX(CBA)(2-Nal), X/X stapled, (S) α-methyl, N-terminal Ac, C-terminal NH2) [SEQ ID NO: 108]", 6.39),
    ("Ac-EHQERSLQTLR[S5]IQR[S5]L[2Nal]-NH2 (staple 12-16; not fully specified; printed as EHQERSLQTLRXIQRXL(2-Nal)) [SEQ ID NO: 12]", 5.38),
    ("Ac-HR[NMeQ]RSL[NMeQ]TLR[S5]IQR[S5][Cha][2Nal]-NH2 (staple 11-15; also: N-methylQ at 3 and 7: D or L (both stated)) [SEQ ID NO: 181]", 6.73),
    ("Ac-LQTLR[S5]IQH[S5][Cba][2Nal]-NH2 (staple 6-10) [SEQ ID NO: 112]", 5.25),
    ("Ac-HRQ[hArg]SLQTLR[S5]IQR[S5][Cba][2Nal]-NH2 (staple 11-15) [SEQ ID NO: 167]", 6.45),
    ("QLEHRERSLQTLRDIQRML[2Nal] [SEQ ID NO: 65]", 5.79),
    ("Propionyl-L[NMeQ]TLR[S5]IQR[S5][Cba][2Nal]-NH2 (staple 6-10; also: N-methyl-Gln at 2: filing says both D and L) [SEQ ID NO: 135]", 5.07),
    ("HRERSLQTLR[Nle]IQR[Nle]L[2Nal] [SEQ ID NO: 62]", 6.08),
    ("LQTLRDIQRML[2Nal]P [SEQ ID NO: 55]", 4.52),
    ("HRERSLQTLRDIQRML[2Nal] [SEQ ID NO: 61]", 5.86),
]
